This collection of values is drawn from paper PMC2646753.

- MEASUREMENT_TARGET: QacR(E57Q/E58Q) (Staphylococcus aureus, UniProt P0A0N4, E57Q/E58Q)
- Sequence (P0A0N4 1-188 E57Q/E58Q): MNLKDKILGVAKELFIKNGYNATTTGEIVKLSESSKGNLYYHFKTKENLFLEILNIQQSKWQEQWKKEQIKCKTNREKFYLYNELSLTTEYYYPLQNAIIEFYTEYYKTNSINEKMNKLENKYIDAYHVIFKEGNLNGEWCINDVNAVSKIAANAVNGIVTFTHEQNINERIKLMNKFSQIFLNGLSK
- ASSAY_DETAILS: Isothermal titration calorimetry, QacR
- Assay type: binding
VALUE_KIND: Kd

The measured Kd associated with Cc1cc(N)c2ccccc2[n+]1CCCCCCCCCC[n+]1c(C)cc(N)c2ccccc21 reads 5.2 µM
